experiment: Healthy volunteers, single-dose arm, sc; assay type: in vivo; details: both, human, plasma, sc, 1 mg, Cmax, single 1.0 mg sc, mean (SD), n=6
observed-property: Cmax (ng/mL)
Note: unit ng/mL is implicit; provide only the numeric part.

Prompt line: Which Cmax value is on record for CCCC[C@H](NC(C)=O)C(=O)N[C@H]1CCC(=O)NC[C@@H](C(=O)N[C@@H](Cc2c[nH]c3ccccc23)C(N)=O)NC(=O)[C@H](CCCNC(=N)N)NC(=O)[C@@H](Cc2ccccc2)NC(=O)[C@H](Cc2c[nH]cn2)NC1=O ?
Response line: 17.4

====

experiment: Healthy volunteers, single-dose arm, sc; format: in vivo; settings: both, human, plasma, sc, 0.1 mg, Vd/F, single 0.1 mg sc, mean (SD), n=4
observed-property: Vd/F (L)
Respond with the bare value in L.

Prompt line: Bench note: what Vd/F did CCCC[C@H](NC(C)=O)C(=O)N[C@H]1CCC(=O)NC[C@@H](C(=O)N[C@@H](Cc2c[nH]c3ccccc23)C(N)=O)NC(=O)[C@H](CCCNC(=N)N)NC(=O)[C@@H](Cc2ccccc2)NC(=O)[C@H](Cc2c[nH]cn2)NC1=O [PL8177] show?
Response line: 36.1

====

test: Healthy volunteers, single-dose arm, sc; type: in vivo; details: both, human, plasma, sc, 3 mg, Cmax, single 3.0 mg sc, median, n=6
observed-property: Cmax (ng/mL)
Write it as a number; the unit ng/mL goes unstated.

Prompt line: Can you look up the measured Cmax of CCCC[C@H](NC(C)=O)C(=O)N[C@H]1CCC(=O)NC[C@@H](C(=O)N[C@@H](Cc2c[nH]c3ccccc23)C(N)=O)NC(=O)[C@H](CCCNC(=N)N)NC(=O)[C@@H](Cc2ccccc2)NC(=O)[C@H](Cc2c[nH]cn2)NC1=O for me?
Response line: 49.1

====

assay: Healthy volunteers, single-dose arm, sc; type: in vivo; settings: both, human, plasma, sc, 0.1 mg, t½, single 0.1 mg sc, mean (SD), n=4
observed-property: half-life (min)
Kindly provide the numeric value in min only, without the unit symbol.

Prompt line: Could you share which half-life value was measured for CCCC[C@H](NC(C)=O)C(=O)N[C@H]1CCC(=O)NC[C@@H](C(=O)N[C@@H](Cc2c[nH]c3ccccc23)C(N)=O)NC(=O)[C@H](CCCNC(=N)N)NC(=O)[C@@H](Cc2ccccc2)NC(=O)[C@H](Cc2c[nH]cn2)NC1=O [PL8177] ?
Response line: 54

====

test: Healthy volunteers, single-dose arm, sc; format: in vivo; conditions: both, human, plasma, sc, 5 mg
observed-property: AUC(0-t) (ng·h/mL)
Report only the number, with the unit ng·h/mL understood.

Prompt line: Would you kindly share the measured AUC(0-t) for CCCC[C@H](NC(C)=O)C(=O)N[C@H]1CCC(=O)NC[C@@H](C(=O)N[C@@H](Cc2c[nH]c3ccccc23)C(N)=O)NC(=O)[C@H](CCCNC(=N)N)NC(=O)[C@@H](Cc2ccccc2)NC(=O)[C@H](Cc2c[nH]cn2)NC1=O [PL8177] ?
Response line: 226

====

assay: Healthy volunteers, single-dose arm, sc; type: in vivo; conditions: both, human, plasma, sc, 0.5 mg, AUC∞, single 0.5 mg sc, mean (SD), n=4
observed-property: AUC(0-inf)

Prompt line: # AUC(0-inf) lookup, item CCCC[C@H](NC(C)=O)C(=O)N[C@H]1CCC(=O)NC[C@@H](C(=O)N[C@@H](Cc2c[nH]c3ccccc23)C(N)=O)NC(=O)[C@H](CCCNC(=N)N)NC(=O)[C@@H](Cc2ccccc2)NC(=O)[C@H](Cc2c[nH]cn2)NC1=O
Response line: 22.4 ng·h/mL
